EXPERIMENT: LD50 by the Lichfield-Wilcoxon method
EXPERIMENTAL SETUP: rat, in vivo, rats
VALUE TYPE: LD50 (mg/kg)
Numbers only; they are read as mg/kg.

Q. LD50 lookup needed for CC(C(=O)O)c1ccc2c(c1)CC(=O)c1ccccc1S2 (stereo not shown) [Compound 2] , thanks.
A. 232

Cited source: patent US4247706A
